Data origin: patent US20220088148A1

Target: T1, human GIP receptor (human, UniProt P48546 22-466)
T1 sequence (looked up): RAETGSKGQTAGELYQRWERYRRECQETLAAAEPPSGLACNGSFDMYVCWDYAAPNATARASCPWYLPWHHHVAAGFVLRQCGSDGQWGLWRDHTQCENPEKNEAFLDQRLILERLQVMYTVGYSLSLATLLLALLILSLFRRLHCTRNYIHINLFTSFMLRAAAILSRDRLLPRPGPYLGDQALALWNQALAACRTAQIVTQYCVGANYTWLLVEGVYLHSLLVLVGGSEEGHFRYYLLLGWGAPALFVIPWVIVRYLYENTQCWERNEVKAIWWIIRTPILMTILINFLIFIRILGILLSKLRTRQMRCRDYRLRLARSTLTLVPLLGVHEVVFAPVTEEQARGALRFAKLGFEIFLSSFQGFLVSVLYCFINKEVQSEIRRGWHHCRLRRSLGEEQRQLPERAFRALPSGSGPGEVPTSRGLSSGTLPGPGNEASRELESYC
Experiment: cell-based or functional assay
Bridges are numbered along the chain shown (N, C = ends). Where no end group is shown, it is not given here. [ ]: non-standard residue; d: D form. Aib = CC(C)(N)C(=O)O
Entries annotated with measured In vitro activity (%) vs. GIP, cAMP EC50
Kindly answer with a numeric value in %, unit omitted.

- Binder: "Y[Aib]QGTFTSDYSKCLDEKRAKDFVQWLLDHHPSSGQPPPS (bridge 16-20; ends not checked) [triple agonist of SEQ ID NO: 70]"
  Unit spec: "%"
  In vitro activity (%) vs. GIP, cAMP EC50: 64.4

Endpoint output: In vitro activity (%) vs. GIP, cAMP EC50 of Y[Aib]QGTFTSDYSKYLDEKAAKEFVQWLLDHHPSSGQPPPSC (bridge 16-20) [triple agonist of SEQ ID NO: 75] . Value?
18

What does the data say about its In vitro activity (%) vs. GIP, cAMP EC50? Entry: H[Aib]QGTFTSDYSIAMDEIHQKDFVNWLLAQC (bridge 16-20) [triple agonist of SEQ ID NO: 55]
2.4
